molecular target: PE-labeled human PD-L1-Ig binding to Jurkat cell line over-expressing human PD-1 (Jurkat-PD-1) (Homo sapiens); construct: expressed in transfected cells; host or cells: Jurkat; experiment: Jurkat-PD-1 Cell Binding High-Content Screening Assay (CBA): Method 1; conditions: Jurkat-hPD-1 cells, PE-labeled PD-L1-Ig 20 nM final; read-out: Jurkat HPDL1 PD1 IC50 (uM) (Method 1)
Bridge positions count the residues as written; N and C are the ends. Square brackets hold non-standard residues; d marks the D form. Peptide text beside a SMILES is read from it. Bip = N[C@@H](Cc1ccc(-c2ccccc2)cc1)C(=O)O; Phe(3-OMe) = COc1cccc(C[C@H](N)C(=O)O)c1; NMeA = CN[C@@H](C)C(=O)O
REPORTED_METRIC: IC50 (µM)
I only need the number, in µM, no unit after it.

Reported IC50 for COc1cccc(C[C@@H]2NC(=O)[C@H](CC(=O)O)NC(=O)[C@H](Cc3ccc(O)cc3)NC(=O)[C@H](Cc3ccccc3)NC(=O)CSC[C@@H](C(=O)N[C@@H](C)C(N)=O)NC(=O)[C@H](CO)NC(=O)[C@H](C(C)C)NC(=O)[C@H](CC(C)C)NC(=O)[C@H](CC(N)=O)NC(=O)[C@@H](C)NC(=O)[C@H](C)N(C)C(=O)[C@H](C(C)C)NC(=O)[C@H](Cc3ccc(-c4ccccc4)cc3)NC(=O)[C@H](CC(C)C)NC2=O)c1 [Compound 1739] ({CH2CO}-FYD[Phe(3-OMe)]L[Bip]V[NMeA][dA]NLVSCA-NH2; thioether N-14) was 0.02

* * *

Overview of reported IC50 across a group of molecules:
target: PE-labeled human PD-L1-Ig binding to Jurkat cell line over-expressing human PD-1 (Jurkat-PD-1) (Homo sapiens, UniProt Q15116); construct: expressed in transfected cells; host or cells: Jurkat; experiment: Jurkat-PD-1 Cell Binding High-Content Screening Assay (CBA): Method 1; details: Jurkat-hPD-1 cells, PE-labeled PD-L1-Ig 20 nM final; read-out: Jurkat HPDL1 PD1 IC50 (uM) (Method 1)
Sequence (Q15116 25-288): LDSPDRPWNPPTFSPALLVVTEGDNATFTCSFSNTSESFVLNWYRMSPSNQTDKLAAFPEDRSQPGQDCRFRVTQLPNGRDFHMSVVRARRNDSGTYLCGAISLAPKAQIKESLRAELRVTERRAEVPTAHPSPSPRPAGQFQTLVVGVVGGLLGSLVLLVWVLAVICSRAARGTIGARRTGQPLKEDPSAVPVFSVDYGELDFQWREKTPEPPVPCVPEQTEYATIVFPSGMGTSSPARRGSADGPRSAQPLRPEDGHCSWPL
Bridge positions count the residues as written; N and C are the ends. Square brackets hold non-standard residues; d marks the D form. Peptide text beside a SMILES is read from it. Bip = N[C@@H](Cc1ccc(-c2ccccc2)cc1)C(=O)O; 3Pal = N[C@@H](Cc1cccnc1)C(=O)O; NMeA = CN[C@@H](C)C(=O)O; Dab = NCC[C@H](N)C(=O)O
In your response, put the unit directly after the numeric value.

MOLECULE | IC50
CC(C)C[C@@H]1NC(=O)[C@H](Cc2c[nH]c3ccccc23)NC(=O)[C@H](CC(=O)O)NC(=O)[C@H](Cc2ccc(O)cc2)NC(=O)[C@H](Cc2ccccc2)NC(=O)CSC[C@@H](C(=O)NCC(N)=O)NC(=O)[C@H]([C@@H](C)O)NC(=O)[C@H](C(C)C)NC(=O)[C@H](CC(C)C)NC(=O)[C@H](CCN)NC(=O)[C@@H](C)NC(=O)[C@H](C)N(C)C(=O)[C@H](C(C)C)NC(=O)[C@H](Cc2ccc(-c3ccccc3)cc2)NC1=O [Compound 1477] ({CH2CO}-FYDWL[Bip]V[NMeA][dA][Dab]LVTCG-NH2; thioether N-14) | 0.02 µM

Reported IC50 for CC(C)C[C@@H]1NC(=O)[C@H](Cc2c[nH]c3ccccc23)NC(=O)[C@H](CC(=O)O)NC(=O)[C@H](Cc2ccc(O)cc2)NC(=O)[C@H](Cc2cccnc2)NC(=O)CSC[C@@H](C(=O)N[C@@H](C)C(N)=O)NC(=O)[C@H](CO)NC(=O)[C@H](C(C)C)NC(=O)[C@H](CC(C)C)NC(=O)[C@H](CC(N)=O)NC(=O)[C@@H](C)NC(=O)[C@H](C)N(C)C(=O)[C@H](C(C)C)NC(=O)[C@H](Cc2ccc(-c3ccccc3)cc2)NC1=O [Compound 1741] ({CH2CO}-[3Pal]YDWL[Bip]V[NMeA][dA]NLVSCA-NH2; thioether N-14) was 0.02 µM

* * *

target: PE-labeled human PD-L1-Ig binding to Jurkat cell line over-expressing human PD-1 (Jurkat-PD-1) (Homo sapiens); construct: expressed in transfected cells; host or cells: Jurkat; assay: Jurkat-PD-1 Cell Binding High-Content Screening Assay (CBA): Method 1; conditions: Jurkat-hPD-1 cells, PE-labeled PD-L1-Ig 20 nM final; read-out: Jurkat HPDL1 PD1 IC50 (uM) (Method 1)
Bridge positions count the residues as written; N and C are the ends. Square brackets hold non-standard residues; d marks the D form. Peptide text beside a SMILES is read from it. Bip = N[C@@H](Cc1ccc(-c2ccccc2)cc1)C(=O)O; Phe(4-I) = N[C@@H](Cc1ccc(I)cc1)C(=O)O; Dopa = N[C@@H](Cc1ccc(O)c(O)c1)C(=O)O; Bta = N[C@@H](Cc1csc2ccccc12)C(=O)O; 3Pal = N[C@@H](Cc1cccnc1)C(=O)O; Cit = NC(=O)NCCC[C@H](N)C(=O)O; NMeA = CN[C@@H](C)C(=O)O; Aze = O=C(O)[C@@H]1CCN1; Dab = NCC[C@H](N)C(=O)O
REPORTED_METRIC: IC50 (µM)
I only need the number, in µM, no unit after it.

Worked examples, 3 compounds total:
COMPOUND | NUMERIC_VALUE
CC(C)C[C@@H]1NC(=O)[C@H](CCCNC(=N)N)NC(=O)[C@@H](CC(C)C)NC(=O)[C@H](C)N(C)C(=O)[C@H](CCCNC(=N)N)NC(=O)[C@H](Cc2ccc(-c3ccccc3)cc2)NC(=O)[C@H](C(C)C)NC(=O)[C@H](Cc2c[nH]c3ccccc23)NC(=O)[C@H](CC(=O)O)NC(=O)[C@H](Cc2ccc(O)cc2)NC(=O)[C@H](Cc2cccnc2)NC(=O)CSC[C@@H](C(=O)N[C@@H](C)C(N)=O)NC(=O)[C@H](CO)NC(=O)[C@H](C(C)C)NC1=O [Compound 1036] ({CH2CO}-[3Pal]YDWV[Bip]R[NMeA][dL]RLVSCA-NH2; thioether N-14) | 0.05
CC(C)C[C@@H]1NC(=O)[C@H](Cc2c[nH]c3ccccc23)NC(=O)[C@H](CC(=O)O)NC(=O)[C@H](Cc2ccc(O)cc2)NC(=O)[C@H](Cc2ccccc2)NC(=O)CSC[C@@H](C(=O)NCC(N)=O)NC(=O)[C@H](CO)NC(=O)[C@H](C(C)C)NC(=O)[C@H](CC(C)C)NC(=O)[C@H](CC(N)=O)NC(=O)[C@@H](CO)NC(=O)[C@H](C)N(C)C(=O)[C@H](C(C)C)NC(=O)[C@H](Cc2ccc(-c3ccccc3)cc2)NC1=O [Compound 1819] ({CH2CO}-FYDWL[Bip]V[NMeA][dS]NLVSCG-NH2; thioether N-14) | 0.43
CC(C)C[C@@H]1NC(=O)[C@H](CCCNC(=N)N)NC(=O)[C@@H](CC(C)C)NC(=O)[C@H](C)N(C)C(=O)[C@H](CCCNC(=N)N)NC(=O)[C@H](Cc2ccc(I)cc2)NC(=O)[C@H](C(C)C)NC(=O)[C@H](Cc2c[nH]c3ccccc23)NC(=O)[C@H](CC(=O)O)NC(=O)[C@H](Cc2ccc(O)cc2)NC(=O)[C@H](Cc2ccccc2)NC(=O)CSC[C@@H](C(=O)N[C@@H](C)C(N)=O)NC(=O)[C@H]([C@@H](C)O)NC(=O)[C@H](C(C)C)NC1=O [Compound 1089] ({CH2CO}-FYDWV[Phe(4-I)]R[NMeA][dL]RLVTCA-NH2; thioether N-14) | 0.94

Reported IC50 for CC(C)C[C@@H]1NC(=O)[C@H](CCCNC(=N)N)NC(=O)[C@@H](CC(C)C)NC(=O)[C@H]2CCCN2C(=O)[C@H](CCCNC(=N)N)NC(=O)[C@H](Cc2ccc(-c3ccccc3)cc2)NC(=O)[C@H](C(C)C)NC(=O)[C@H](Cc2c[nH]c3ccccc23)NC(=O)[C@H](CC(=O)O)NC(=O)[C@H](Cc2ccc(O)cc2)NC(=O)[C@H](CC(N)=O)NC(=O)CSC[C@@H](C(=O)N[C@@H](C)C(N)=O)NC(=O)[C@H]([C@@H](C)O)NC(=O)[C@H](C(C)C)NC1=O [Compound 1214] ({CH2CO}-NYDWV[Bip]R[dP][dL]RLVTCA-NH2; thioether N-14) was 0.05

Reported IC50 for CC(C)C[C@@H]1NC(=O)[C@H](CCN)NC(=O)[C@@H](CC(C)C)NC(=O)[C@@H]2CCN2C(=O)[C@H](C(C)C)NC(=O)[C@H](Cc2ccc(-c3ccccc3)cc2)NC(=O)[C@H](C(C)C)NC(=O)[C@H](Cc2c[nH]c3ccccc23)NC(=O)[C@H](CC(=O)O)NC(=O)[C@H](Cc2ccc(O)cc2)NC(=O)[C@H](CC(N)=O)NC(=O)CSC[C@@H](C(=O)N[C@@H](C)C(N)=O)NC(=O)[C@H]([C@@H](C)O)NC(=O)[C@H](C(C)C)NC1=O [Compound 1297] ({CH2CO}-NYDWV[Bip]V[Aze][dL][Dab]LVTCA-NH2; thioether N-14) was 0.32

Reported IC50 for CC(C)C[C@@H]1NC(=O)[C@H](CCCNC(=N)N)NC(=O)[C@@H](CC(C)C)NC(=O)[C@H](C)N(C)C(=O)[C@H](CCCNC(N)=O)NC(=O)[C@H](Cc2ccc(-c3ccccc3)cc2)NC(=O)[C@H](C(C)C)NC(=O)[C@H](Cc2c[nH]c3ccccc23)NC(=O)[C@H](CC(=O)O)NC(=O)[C@H](Cc2ccc(O)cc2)NC(=O)[C@H](CC(N)=O)NC(=O)CSC[C@@H](C(=O)NCC(N)=O)NC(=O)[C@H](CO)NC(=O)[C@H](C(C)C)NC1=O [Compound 1246] ({CH2CO}-NYDWV[Bip][Cit][NMeA][dL]RLVSCG-NH2; thioether N-14) was 0.05

Reported IC50 for CC(C)C[C@@H]1NC(=O)[C@H](Cc2c[nH]c3ccccc23)NC(=O)[C@H](CC(=O)O)NC(=O)[C@H](Cc2ccc(O)c(O)c2)NC(=O)[C@H](Cc2ccccc2)NC(=O)CSC[C@@H](C(=O)N[C@@H](C)C(N)=O)NC(=O)[C@H](CO)NC(=O)[C@H](C(C)C)NC(=O)[C@H](CC(C)C)NC(=O)[C@H](CC(N)=O)NC(=O)[C@@H](C)NC(=O)[C@H](C)N(C)C(=O)[C@H](C(C)C)NC(=O)[C@H](Cc2ccc(-c3ccccc3)cc2)NC1=O [Compound 1724] ({CH2CO}-F[Dopa]DWL[Bip]V[NMeA][dA]NLVSCA-NH2; thioether N-14) was 0.01

Reported IC50 for CC(C)C[C@@H]1NC(=O)[C@H](CCCNC(=N)N)NC(=O)[C@H](Cc2csc3ccccc23)NC(=O)[C@H](C)N(C)C(=O)[C@H](CCCNC(=N)N)NC(=O)[C@H](Cc2ccc(-c3ccccc3)cc2)NC(=O)[C@H](C(C)C)NC(=O)[C@H](Cc2c[nH]c3ccccc23)NC(=O)[C@H](CC(=O)O)NC(=O)[C@H](Cc2ccc(O)cc2)NC(=O)[C@H](CC(N)=O)NC(=O)CSC[C@@H](C(=O)N[C@@H](C)C(N)=O)NC(=O)[C@H](CO)NC(=O)[C@H](C(C)C)NC1=O [Compound 1055] ({CH2CO}-NYDWV[Bip]R[NMeA][Bta]RLVSCA-NH2; thioether N-14) was 0.11
